- Tested on: 168753-222-R-J1-PDC complex spheroid viability
- MEASUREMENT_PROTOCOL: Anticancer human tumor 168753-222-R-J1-PDC patient-derived bladder carcinoma cell line growth inhibition [CLK]
- COND: second compound 0.1 µM; first compound 10 µM; active compounds read low
OUTCOME_MEASURE: viability, T/C (%)
Enter your answer as a number in %; do not include the unit.

Item under review: CC(Nc1ccc2c(c1)OCCn1cc(N3C(=O)OCC3C(F)F)nc1-2)C(N)=O (stereo not given) + CNC(=O)c1ccc(Nc2nc(OC3CCCC3)c3c(-c4ccc5nc(C)oc5c4)c[nH]c3n2)c(OC)c1 . Reported viability, T/C?
11.6

Also CC(Nc1ccc2c(c1)OCCn1cc(N3C(=O)OCC3C(F)F)nc1-2)C(N)=O (stereo not given) + CN1CCN(c2cc(C(=O)Nc3cc4cc(-c5cnn(C)c5)ccc4cn3)ccn2)CC1 , if possible.
7.78

Also Nc1ccn(C2OC(CO)C(O)C2(F)F)c(=O)n1 (stereo not given) + CN1CCN(c2cc(C(=O)Nc3cc4cc(-c5cnn(C)c5)ccc4cn3)ccn2)CC1 , if possible.
11.8

Also CCCS(=O)(=O)Nc1ccc(F)c(C(=O)c2c[nH]c3ncc(-c4ccc(Cl)cc4)cc23)c1F + CN1CCN(c2cc(C(=O)Nc3cc4cc(-c5cnn(C)c5)ccc4cn3)ccn2)CC1 , if possible.
41.5

Also COC1C=CCC(C)C(C)S(=O)(=O)NC(=O)c2ccc3c(c2)N(CC2CCC21)CC1(CCCc2cc(Cl)ccc21)CO3 (stereo not given) + CN1CCN(c2cc(C(=O)Nc3cc4cc(-c5cnn(C)c5)ccc4cn3)ccn2)CC1 , if possible.
12.6

###

Record form. Attribute: viability, T/C. Fill in for each entry.
- Tested on: 168753-222-R-J1-PDC complex spheroid viability
- MEASUREMENT_PROTOCOL: Anticancer human tumor 168753-222-R-J1-PDC cell line growth inhibition [CLK];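 also: luminescence signal used as surrogate for viable cell amount; viability measured after seven days of drug exposure; 100% = DMSO vehicle control wells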
- COND: second compound 0.1 µM; first compound 1 µM; active compounds read low
Enter your answer as a number in %; do not include the unit.

What reported viability, T/C corresponds to COc1c(OCCCN2CCOCC2)ccc2c3n(c(=NC(=O)c4cnc(N)nc4)nc12)CCN3 + CNC(=O)c1ccc(Nc2nc(OC3CCCC3)c3c(-c4ccc5nc(C)oc5c4)c[nH]c3n2)c(OC)c1 on 168753-222-R-J1-PDC complex spheroid viability?
1.03

Also C=CC(=O)N1CCN(c2nc(=O)n(-c3c(C)ccnc3C(C)C)c3nc(-c4c(O)cccc4F)c(F)cc23)C(C)C1 (stereo not drawn) + CNC(=O)c1ccc(Nc2nc(OC3CCCC3)c3c(-c4ccc5nc(C)oc5c4)c[nH]c3n2)c(OC)c1 , if possible.
107

Also COc1cccc2c1C(=O)c1c(O)c3c(c(O)c1C2=O)CC(O)(C(=O)CO)CC3OC1CC(N)C(O)C(C)O1 (stereo not drawn) + CN1CCN(c2cc(C(=O)Nc3cc4cc(-c5cnn(C)c5)ccc4cn3)ccn2)CC1 , if possible.
7.96

###

- Tested on: 168753-222-R-J1-PDC complex spheroid viability
- MEASUREMENT_PROTOCOL: Anticancer human tumor 168753-222-R-J1-PDC cell line growth inhibition [CLK]; active means viability on the fitted dose curve at most 10% of control; inactive means the rest;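 also: luminescence signal used as surrogate for viable cell amount; viability measured after seven days of drug exposure; 100% = DMSO vehicle control wells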
- COND: second compound 0.316 µM; first compound 0.316 µM
Pick from active, inactive when you respond.

What outcome does the record of this test show for COc1cccc2c1C(=O)c1c(O)c3c(c(O)c1C2=O)CC(O)(C(=O)CO)CC3OC1CC(N)C(O)C(C)O1 (stereo not given) + CNC(=O)c1ccc(Nc2nc(OC3CCCC3)c3c(-c4ccc5nc(C)oc5c4)c[nH]c3n2)c(OC)c1 ?
inactive

Also C=C(F)C(=O)N1CCN(c2nc(OCC3CCCN3C)nc3c2CCN(c2cccc4cccc(Cl)c24)C3)CC1CC#N (stereo not given) + CNC(=O)c1ccc(Nc2nc(OC3CCCC3)c3c(-c4ccc5nc(C)oc5c4)c[nH]c3n2)c(OC)c1 , if possible.
inactive

Also COc1c(OCCCN2CCOCC2)ccc2c3n(c(=NC(=O)c4cnc(N)nc4)nc12)CCN3 + CNC(=O)c1ccc(Nc2nc(OC3CCCC3)c3c(-c4ccc5nc(C)oc5c4)c[nH]c3n2)c(OC)c1 , if possible.
active

Also Nc1ccccc1NC(=O)c1ccc(CNC(=O)OCc2cccnc2)cc1 + CN1CCN(c2cc(C(=O)Nc3cc4cc(-c5cnn(C)c5)ccc4cn3)ccn2)CC1 , if possible.
active

Also CC(=O)O[C@H]1C(=O)[C@@]2(C)[C@H]([C@H](OC(=O)c3ccccc3)[C@]3(O)C[C@H](OC(=O)[C@H](O)[C@@H](NC(=O)c4ccccc4)c4ccccc4)C(C)=C1C3(C)C)[C@]1(OC(C)=O)CO[C@@H]1C[C@@H]2O + CNC(=O)c1ccc(Nc2nc(OC3CCCC3)c3c(-c4ccc5nc(C)oc5c4)c[nH]c3n2)c(OC)c1 , if possible.
inactive

Also C#Cc1c(F)ccc2cc(O)cc(-c3ncc4c(N5CC6CCC(C5)N6)nc(OCC56CCCN5CC(F)C6)nc4c3F)c12 (stereo not given) + CNC(=O)c1ccc(Nc2nc(OC3CCCC3)c3c(-c4ccc5nc(C)oc5c4)c[nH]c3n2)c(OC)c1 , if possible.
inactive

Also CC1COCCN1c1cc(C2(S(C)(=N)=O)CC2)nc(-c2ccnc3[nH]ccc23)n1 (stereo not given) + CNC(=O)c1ccc(Nc2nc(OC3CCCC3)c3c(-c4ccc5nc(C)oc5c4)c[nH]c3n2)c(OC)c1 , if possible.
inactive

Also COC1C=CCC(C)C(C)S(=O)(=O)NC(=O)c2ccc3c(c2)N(CC2CCC21)CC1(CCCc2cc(Cl)ccc21)CO3 (stereo not given) + CNC(=O)c1ccc(Nc2nc(OC3CCCC3)c3c(-c4ccc5nc(C)oc5c4)c[nH]c3n2)c(OC)c1 , if possible.
inactive

Also COc1ccc([C@@H](O)c2cc(-c3ncnc4cc(N5CCOCC5)ccc34)c(F)cc2Cl)nn1 + CN1CCN(c2cc(C(=O)Nc3cc4cc(-c5cnn(C)c5)ccc4cn3)ccn2)CC1 , if possible.
active

Also O=c1[nH]cc(F)c(=O)[nH]1 + CNC(=O)c1ccc(Nc2nc(OC3CCCC3)c3c(-c4ccc5nc(C)oc5c4)c[nH]c3n2)c(OC)c1 , if possible.
inactive
